Data origin: BigSolDB 2.1

- conditionContext: in methyl acetate, 298.15 K
measuredMetric: solubility (mole fraction)

INSERT INTO assay_data (testsmiles, readoutnumber) VALUES
  ('OCCOc1ccc2ccccc2c1-c1c(OCCO)ccc2ccccc12', 0.00778);

----------
- conditionContext: in n-butanol, 303.15 K
measuredMetric: solubility (mole fraction)

INSERT INTO assay_data (testsmiles, measuredmetric, readoutnumber) VALUES
  ('OCCOc1ccc2ccccc2c1-c1c(OCCO)ccc2ccccc12', 'solubility (mole fraction)', 0.00317);

----------
- conditionContext: in toluene, 318.15 K
measuredMetric: solubility (mole fraction)

INSERT INTO assay_data (testsmiles, readoutnumber) VALUES
  ('OCCOc1ccc2ccccc2c1-c1c(OCCO)ccc2ccccc12', 0.00794);

----------
- conditionContext: in n-butanol, 323.15 K
measuredMetric: solubility (mole fraction)

INSERT INTO measurements (testsmiles, readoutnumber) VALUES
  ('OCCOc1ccc2ccccc2c1-c1c(OCCO)ccc2ccccc12', 0.0109);

----------
- conditionContext: in ethyl acetate, 288.15 K
measuredMetric: solubility (mole fraction)

INSERT INTO measurements (testsmiles, measuredmetric, readoutnumber) VALUES
  ('OCCOc1ccc2ccccc2c1-c1c(OCCO)ccc2ccccc12', 'solubility (mole fraction)', 0.00328);

----------
- conditionContext: in acetone, 303.15 K
measuredMetric: solubility (mole fraction)

INSERT INTO measurements (testsmiles, result) VALUES
  ('OCCOc1ccc2ccccc2c1-c1c(OCCO)ccc2ccccc12', 0.0212);

----------
- conditionContext: in n-butyl acetate, 308.15 K
measuredMetric: solubility (mole fraction)

INSERT INTO results (testsmiles, measuredmetric, readoutnumber) VALUES
  ('OCCOc1ccc2ccccc2c1-c1c(OCCO)ccc2ccccc12', 'solubility (mole fraction)', 0.00646);

----------
- conditionContext: in ethyl formate, 308.15 K
measuredMetric: solubility (mole fraction)

INSERT INTO measurements (testsmiles, measuredmetric, readoutnumber) VALUES
  ('OCCOc1ccc2ccccc2c1-c1c(OCCO)ccc2ccccc12', 'solubility (mole fraction)', 0.00964);

----------
- conditionContext: in acetone, 298.15 K
measuredMetric: solubility (mole fraction)

INSERT INTO assay_data (testsmiles, result) VALUES
  ('OCCOc1ccc2ccccc2c1-c1c(OCCO)ccc2ccccc12', 0.0153);

----------
- conditionContext: in n-propanol, 283.15 K
measuredMetric: solubility (mole fraction)

INSERT INTO assay_data (testsmiles, readoutnumber) VALUES
  ('OCCOc1ccc2ccccc2c1-c1c(OCCO)ccc2ccccc12', 0.00111);

----------
- conditionContext: in n-butyl acetate, 318.15 K
measuredMetric: solubility (mole fraction)

INSERT INTO measurements (testsmiles, measuredmetric, readoutnumber) VALUES
  ('OCCOc1ccc2ccccc2c1-c1c(OCCO)ccc2ccccc12', 'solubility (mole fraction)', 0.0108);

----------
- conditionContext: in isobutyl acetate, 293.15 K
measuredMetric: solubility (mole fraction)

INSERT INTO results (testsmiles, measuredmetric, readoutnumber) VALUES
  ('OCCOc1ccc2ccccc2c1-c1c(OCCO)ccc2ccccc12', 'solubility (mole fraction)', 0.0022);

----------
- conditionContext: in isopropanol, 318.15 K
measuredMetric: solubility (mole fraction)

INSERT INTO assay_data (testsmiles, readoutnumber) VALUES
  ('OCCOc1ccc2ccccc2c1-c1c(OCCO)ccc2ccccc12', 0.00649);
